System: SR leukemia
experiment_summary: NCI tumour cell line growth inhibition, 48 h

| compound | TGI |
| --- | --- |
| N/N=C1\C(=O)N(Cc2ccccc2)C(=O)C1C(=O)NCc1ccccc1 (stereo unspecified) | > 100 µM |
| CN(C)c1ccc(/C=C/c2ccc(S(N)(=O)=O)cc2)cc1 | > 100 µM |
| Cc1cc(S(=O)(=O)N2CCNNC2=O)c(S)cc1Cl | > 100 µM |
| CC(=O)Nc1ccc2nc(-c3ccccn3)c(-c3ccccn3)nc2c1 | > 100 µM |
| O=C(CC1(O)C(=O)N(Cc2ccccc2)c2ccc(Cl)cc21)c1ccc(C(=O)NCC2CCC3(CC2)OOC2(CCCCC2)OO3)cc1 (stereo unspecified) | 0.531 µM |
| COc1cc2c(cc1OC)C1C(=O)c3c(O)cc4c(c3OC1CO2)C=CC(C)(C)O4 (stereo unspecified) | > 100 µM |

* * *

System: HT29 colon
experiment_summary: NCI tumour cell line growth inhibition, 48 h
Reported TGI values are given for each entry in this list.

| compound | TGI |
| --- | --- |
| S=C(N/N=C(\c1ccccc1)c1ccccn1)NC1CCCCC1 | > 100 µM |
| COC(=O)/C=C\C(C#N)(C#N)N=Cc1cccc(OC)c1 | 10.5 µM |
| COc1ccc(C2=NN(c3ccccc3)C[N+](c3ccc(C)cc3)=N2)cc1 | > 100 µM |
| CCC(C)C(N)C(=O)NC(CC(N)=O)C(=O)NC(CC(C)C)C(=O)NC(CCCCN)C(=O)NC(C)C(=O)NC(CC(C)C)C(=O)NC(C)C(=O)NC(C)C(=O)NC(CC(C)C)C(=O)NC(C)C(=O)NC(CCCCN)C(=O)NC(CCCCN)C(=O)NC(C(=O)NC(CC(C)C)C(N)=O)C(C)CC (stereo not drawn) | 35.9 µM |
| O=c1c2ccccc2[nH]n1Cc1ccccc1 | > 100 µM |
| O=C(Nc1ccc(Cl)cc1C(F)(F)F)C(=O)C1CCCS1(=O)=O (stereo not drawn) | > 100 µM |
| C=CCN1/C(=C(\C#N)c2nc3ccccc3[nH]2)Sc2c1nc[nH]c2=O | > 100 µM |
| COc1cc2c3cc1Oc1c(OC)c(OC)cc4c1C(=NCC4)Cc1ccc(cc1)Oc1cc(ccc1O)C[C@H]3N(C)CC2 | 23.3 µM |

* * *

Measured TGI, listed per entry for reference.
Tested on: CAKI-1 renal
experiment_summary: NCI tumour cell line growth inhibition, 48 h
measure_name: TGI

| compound | endpoint_result |
| --- | --- |
| COC(=O)C1CCC(=S)N1C(=O)OCc1ccccc1 (stereo not drawn) | > 100 µM |
| CSC1NC(c2ccccc2)=C(C#N)C(=O)N1C1OCC(OC(C)=O)C(OC(C)=O)C1OC(C)=O (stereo not drawn) | > 100 µM |
| NNC(=O)CC(=O)Nc1cccc(Cl)c1 | > 100 µM |

* * *

Below, each entry is listed with its recorded GI50.
Tested on: SNB-19 CNS
experiment_summary: NCI tumour cell line growth inhibition, 48 h

| smiles_entry | GI50 |
| --- | --- |
| CN(C)CCCN(CCC1CCCCC1)CCC1CCCCC1 | 5.63 µM |
| CC1CCN(Cc2ccc(NC(=O)c3cc4ccc5cccnc5c4[nH]3)cc2)CC1 | 13.1 µM |
| O=C1C(Cl)=C(Nc2ccc(Nc3ccccc3)c(NC3=C(Cl)C(=O)c4ccccc4C3=O)c2)C(=O)c2ccccc21 | 4.34 µM |
| O=S(=O)([O-])c1ccc(N=Cc2ccccc2[O-])cc1.O=S(=O)([O-])c1ccc(N=Cc2ccccc2[O-])cc1.[Co+2] | > 100 µM |

This collection of values is drawn from PubChem BioAssay (NCI).
